Value source: patent US20120121691A1

test system: COG-LL-317; assay type: cell-based, human
quantity kind: Pearson Coef. (r), sphingolipid level vs cytotoxicity

CCCCCCCCCCCCCC=CC(O)C(CO)NC(=O)CCCCCCCCCCCCCCCCCCCCCCC (stereo not drawn) [C24:0-Cer]: 0.48
CCCCCCCCCCCCCC=CC(O)C(CO)NC(=O)CCCCCCCCCCCCCCCCC (stereo not drawn) [C18:0-Cer]: −0.45
CCCCCCCCC=CCCCCCCCC(=O)NC(CO)C(O)C=CCCCCCCCCCCCCC (stereo not drawn) [C18:1-Cer]: −0.50
CCCCCCCCCCCCCCCCCCCCCCCC(=O)N[C@@H](CO)[C@H](O)CCCCCCCCCCCCCCC [C24:0-DHCer]: 0.89
CCCCCCCCC=CCCCCCCCCCCCC(=O)NC(CO)C(O)C=CCCCCCCCCCCCCC (stereo not drawn) [C22:1-Cer]: −0.28
CCCCCCCCCCCCCCCCCC(=O)N[C@@H](CO)[C@H](O)CCCCCCCCCCCCCCC [C18:0-DHCer]: −0.22
CCCCCCCCC=CCCCCCCCCCCCC(=O)NC(CO)C(O)CCCCCCCCCCCCCCC (stereo not drawn) [C22:1-DHCer]: −0.28
CCCCCCCC/C=C\CCCCCCCCCCCCCC(=O)N[C@@H](CO)[C@H](O)/C=C/CCCCCCCCCCCCC [C24:1-Cer]: −0.42
CCCCCCCC/C=C\CCCCCCCCCCCCCC(=O)N[C@@H](CO)[C@H](O)CCCCCCCCCCCCCCC [C24:1-DHCer]: −0.29
